Overview of reported clearance across a group of compounds:
- test-summary: Plasma clearance in iv dosed cynomolgus monkey
- Format: ADME, organism-based, Macaca fascicularis
observation-type: clearance

[[record]]
structure_smiles = "Cn1cc(C(=O)N2CC3(C2)CN(c2cncc(N4C(=O)c5ccc(Cl)cc5C4(C)C)c2)C3)cn1"
test_value = "2.1 mL/min/kg"

[[record]]
structure_smiles = "CCS(=O)(=O)N1CC(Oc2cncc(N3C(=O)c4ccc(Cl)cc4C3(C)C)c2)C1"
test_value = "4.6 mL/min/kg"


---

- tested-target: Cytochrome P450 11B2, mitochondrial (Homo sapiens)
- Sequence (P19099 whole entry): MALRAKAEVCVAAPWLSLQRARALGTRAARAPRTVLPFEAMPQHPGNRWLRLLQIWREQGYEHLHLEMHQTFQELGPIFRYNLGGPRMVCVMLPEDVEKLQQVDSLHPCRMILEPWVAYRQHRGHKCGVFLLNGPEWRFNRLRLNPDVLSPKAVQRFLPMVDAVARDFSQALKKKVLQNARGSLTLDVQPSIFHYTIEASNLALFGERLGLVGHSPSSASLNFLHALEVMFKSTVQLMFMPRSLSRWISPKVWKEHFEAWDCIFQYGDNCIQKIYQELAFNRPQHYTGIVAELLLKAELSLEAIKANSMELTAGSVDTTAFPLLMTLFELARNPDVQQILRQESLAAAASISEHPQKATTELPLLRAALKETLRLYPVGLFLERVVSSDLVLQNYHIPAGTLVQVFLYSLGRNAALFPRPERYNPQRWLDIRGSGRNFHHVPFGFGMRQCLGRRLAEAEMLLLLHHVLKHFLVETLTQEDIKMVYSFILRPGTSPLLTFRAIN
- test-summary: Inhibition of CYP11B2 in H295R cell assessed as reduction in 18-hyroxycorticosterone by LC/MS-MS method
observation-type: IC50

[[record]]
structure_smiles = "CCS(=O)(=O)N1CC(Oc2cncc(N3C(=O)c4ccc(Cl)cc4C3(C)C)c2)C1"
test_value = "< 1 nM"


Each recorded value in this set is attributed to ChEMBL document CHEMBL4616681.
